For each of the compounds below, state its concentration at 2 h.
- procedure-text: Pharmacokinetics (plasma and brain levels) in ICR (CD-1) mice
- Assay type: in vivo
- condition-summary: male, ICR (CD-1), mouse, brain, iv, 1 mg/kg, i.v. 1 mg/kg, mouse brain, 2.00 h; read-out: Conc. in brain, individual animal
One number for each entry, in ng/g.

CC(=O)Nc1ccc(-c2cnc3cc(Cl)ccc3n2)cc1: 276

Below: the item to evaluate.
Item CC(=O)Nc1ccc(C2=Nc3ccc(Cl)cc3OC2)cc1 [CA77, reference compound] has what recorded concentration at 2 h? 773

---

- procedure-text: Pharmacokinetics (plasma and brain levels) in ICR (CD-1) mice
- Type: in vivo
- condition-summary: male, ICR (CD-1), mouse, brain, iv, 1 mg/kg, i.v. 1 mg/kg, mouse brain, 4.00 h; read-out: Conc. in brain, individual animal
quantity-measured: concentration at 4 h (ng/g)
Numbers only, in ng/g.

CC(=O)Nc1ccc(-c2cnc3cc(Cl)ccc3n2)cc1 [CA77.1]: 18.2

May I ask what concentration at 4 h has been recorded for CC(=O)Nc1ccc(C2=Nc3ccc(Cl)cc3OC2)cc1 [CA77, reference compound] ? 76

---

For each record, write down the corresponding concentration at 1 h.
- procedure-text: Pharmacokinetics (plasma and brain levels) in ICR (CD-1) mice
- Assay type: in vivo
- condition-summary: male, ICR (CD-1), mouse, brain, iv, 1 mg/kg, i.v. 1 mg/kg, mouse brain, 1.00 h; read-out: Conc. in brain, individual animal
Give bare numbers, in ng/g.

Take each entry in turn and give its concentration at 1 h.
1. CC(=O)Nc1ccc(-c2cnc3cc(Cl)ccc3n2)cc1 [CA77.1]
2. CC(=O)Nc1ccc(C2=Nc3ccc(Cl)cc3OC2)cc1 [CA77, reference compound]

[597, 2760]

---

- procedure-text: Pharmacokinetics (plasma and brain levels) in ICR (CD-1) mice
- Type: in vivo
- condition-summary: male, mouse, plasma, iv; i.v. 1 mg/kg, ICR (CD-1) mice; read-out: MRTINF_obs
quantity-measured: MRT inf
Express your answer as a number followed by its unit.

Item `CC(=O)Nc1ccc(-c2cnc3cc(Cl)ccc3n2)cc1` has what recorded MRT inf? 2 h

---

- procedure-text: Pharmacokinetics (plasma and brain levels) in ICR (CD-1) mice
- Assay type: in vivo
- condition-summary: male, ICR (CD-1), mouse, plasma, iv, 1 mg/kg, i.v. 1 mg/kg, mouse plasma, 1.00 h; read-out: Conc. in plasma, individual animal
quantity-measured: concentration at 1 h (ng/mL)
Answers are plain numbers, in ng/mL.

CC(=O)Nc1ccc(-c2cnc3cc(Cl)ccc3n2)cc1: 110

As a next step, examine the compound that follows.
Recorded concentration at 1 h for CC(=O)Nc1ccc(C2=Nc3ccc(Cl)cc3OC2)cc1 [CA77, reference compound] , please? 15.5

---

- procedure-text: Pharmacokinetics (plasma and brain levels) in ICR (CD-1) mice
- Format: in vivo
- condition-summary: male, ICR (CD-1), mouse, brain/plasma, iv, 1 mg/kg, i.v. 1 mg/kg, mouse, 24.0 h; read-out: Brain/Plasma ratio, Mean
- Protocol: ICR (CD-1) male mice were fasted at least three horns and water was available ad libitum before the study. Animals were housed in a controlled environment, target conditions: temperature 18 to 29° C., relative humidity 30 to 70%. Temperature and relative humidity was monitored daily. […] Mice were sacrificed and plasma and brains were obtained at 0.083, 0.25, 0.50, 1.0, 2.0, 4.0, 8.0, and 24.0 hours after administration and drug concentration determined using LC-MS/MS. […]
quantity-measured: Kp at 24 h

Which Kp at 24 h value belongs to `CC(=O)Nc1ccc(-c2cnc3cc(Cl)ccc3n2)cc1` ? 0
